Hey, just so you know, these numbers are from patent US4267184A.

System: Adjuvant-Induced Arthritis in Rats
Experiment: Established Adjuvant-Induced Arthritis in Rats
Type: in vivo, Charles River Lewis male rats
Conditions: Rattus norvegicus, Table VII, oral, dose 27 mg/kg, read-out: percent reduction in paw volume at the indicated dose
Procedure: A procedure for detecting and comparing the antiinflammatory activity of compounds in this series and standard drugs for which there is a good correlation with human efficacy is the adjuvant-induced arthritis test in rats. […] Dose-response regression lines of the % decrease are plotted on semi-log paper by visual fit and the ED50% decrease from control paw volume is determined by inspection.
A collection of compounds and their measured inhibition in vivo at 27 mg/kg
// return numeric value only (unit: %, not printed)

INSERT INTO results (chemical_string, recorded_measurement) VALUES
  ('Fc1cccc(-c2cc(SC(F)(F)F)[nH]c2-c2cccc(F)c2)c1', 33),
  ('COc1ccc(-c2[nH]c(S(C)(=O)=O)cc2-c2ccc(F)cc2)cc1', 34),
  ('CCOc1ccc(-c2[nH]c(SC(F)(F)F)cc2-c2ccc(F)cc2)cc1', 19),
  ('CS(=O)(=O)c1cc(-c2ccc(Cl)cc2)c(-c2ccccc2)[nH]1', 23),
  ('CCS(=O)(=O)c1cc(-c2ccc(Cl)cc2)c(-c2ccc(Cl)cc2)[nH]1', 23),
  ('CS(=O)(=O)c1cc(-c2ccc(F)cc2)c(-c2ccc(F)cc2)[nH]1', 25),
  ('Fc1ccc(-c2cc(SC(F)(F)F)[nH]c2-c2ccccc2)cc1', 22);

Moving on to another compound below.
INPUT: Param item = CSc1cc(-c2ccc(F)cc2)c(-c2ccc(F)cc2)[nH]1 ; retrieve measured inhibition in vivo at 27 mg/kg.
OUTPUT: 19
